# Lookup of reported ΔTm at 10 µM keyed by entry
Target: BRAFA (Homo sapiens, UniProt P15056)
Construct: purchased in-house DSF kinase panel (SGC-style construct names; the trailing letter is the construct ID)
Sequence (P15056 448-723): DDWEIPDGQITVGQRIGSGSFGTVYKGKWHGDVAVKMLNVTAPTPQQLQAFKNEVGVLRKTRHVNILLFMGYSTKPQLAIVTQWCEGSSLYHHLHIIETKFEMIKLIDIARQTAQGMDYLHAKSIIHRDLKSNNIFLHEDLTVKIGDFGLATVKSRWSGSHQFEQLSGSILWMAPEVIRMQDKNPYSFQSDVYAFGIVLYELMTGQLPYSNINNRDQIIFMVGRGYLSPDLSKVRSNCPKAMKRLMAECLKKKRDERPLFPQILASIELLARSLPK
Experiment: DSF Tm panel
Type: binding
Conditions: 10 μM compound
Use °C as the unit, but write only the number.

> print(dat)
                               input.smiles  quantity.measured  experimental.value
1  CN1CCN(C(=O)Nc2ccc3cc2OCCOCCNc2ccn4ncc-3c4n2)CC1       ΔTm at 10 µM                 1.2

So what's the measured ΔTm at 10 µM for this one? O=C(NCc1ccc(C(F)(F)F)cc1)Nc1ccc2cc1OCCOCCNc1ccn3ncc-2c3n1
0

// lookup ΔTm at 10 µM for O=C(NCc1cccc(Cl)c1)Nc1ccc2cc1OCCOCCNc1ccn3ncc-2c3n1
0.6

Which ΔTm at 10 µM is listed for COc1ccc(CNC(=O)Nc2ccc3cc2OCCOCCNc2ccn4ncc-3c4n2)cc1 ?
-0.5

// lookup ΔTm at 10 µM for C[C@H](NC(=O)Nc1ccc2cc1OCCOCCNc1ccn3ncc-2c3n1)c1ccccc1
-0.5

Sample Cc1cc(Br)ccc1CNC(=O)Nc1ccc2cc1OCCOCCNc1ccn3ncc-2c3n1 — what was its ΔTm at 10 µM?
-0.3

So what's the measured ΔTm at 10 µM for this one? O=C(NCc1ccc(Cl)cc1F)Nc1ccc2cc1OCCOCCNc1ccn3ncc-2c3n1
0.5

Entry O=C(NCc1ccc(Cl)cc1Cl)Nc1ccc2cc1OCCOCCNc1ccn3ncc-2c3n1 has what ΔTm at 10 µM?
0.4

Recorded ΔTm at 10 µM for Cc1ccc(F)cc1CNC(=O)Nc1ccc2cc1OCCOCCNc1ccn3ncc-2c3n1 , please?
-0.6

Which ΔTm at 10 µM is listed for O=C(NCc1ccccc1)Nc1ccc2cc1OCCOCCNc1ccn3ncc-2c3n1 ?
0.8

Please give the measured ΔTm at 10 µM for this compound: Cc1cc(Cl)ccc1CNC(=O)Nc1ccc2cc1OCCOCCNc1ccn3ncc-2c3n1
0.5

I have this compound here, COc1ccc(CNC(=O)Nc2ccc3cc2OCCOCCNc2ccn4ncc-3c4n2)cc1F , and I need its recorded ΔTm at 10 µM.
-0.2

Query (compound): COc1cccc(CNC(=O)Nc2ccc3cc2OCCOCCNc2ccn4ncc-3c4n2)c1 ; field requested: ΔTm at 10 µM
-0.2

Would you kindly share the measured ΔTm at 10 µM for O=C(NCc1ccccc1Cl)Nc1ccc2cc1OCCOCCNc1ccn3ncc-2c3n1 ?
0.8

# ΔTm at 10 µM lookup, item COc1cc(CNC(=O)Nc2ccc3cc2OCCOCCNc2ccn4ncc-3c4n2)ccc1F
-0.6

Please report the recorded ΔTm at 10 µM for O=C(NCc1ccc(Cl)cc1)Nc1ccc2cc1OCCOCCNc1ccn3ncc-2c3n1 .
0.8

Could you tell me which ΔTm at 10 µM is on file for O=C(NCc1ccccc1C(F)(F)F)Nc1ccc2cc1OCCOCCNc1ccn3ncc-2c3n1 ?
-0.4

# ΔTm at 10 µM lookup, item COc1ccccc1CNC(=O)Nc1ccc2cc1OCCOCCNc1ccn3ncc-2c3n1
-0.4

* * *

Reported values of ΔTm at 10 µM for individual entries
Target: MAPKAPK2A (Homo sapiens, UniProt P49137)
Construct: purchased in-house DSF kinase panel (SGC-style construct names; the trailing letter is the construct ID)
Sequence (P49137 64-325): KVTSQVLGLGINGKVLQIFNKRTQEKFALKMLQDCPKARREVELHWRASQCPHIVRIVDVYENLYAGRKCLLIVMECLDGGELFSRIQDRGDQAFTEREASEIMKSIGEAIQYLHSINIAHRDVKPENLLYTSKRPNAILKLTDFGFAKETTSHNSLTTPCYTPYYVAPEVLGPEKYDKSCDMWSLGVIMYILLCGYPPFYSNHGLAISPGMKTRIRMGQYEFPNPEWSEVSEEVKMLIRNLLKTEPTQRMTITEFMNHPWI
Experiment: DSF Tm panel
Type: binding
Conditions: 10 μM compound
State the answer as a number, implicitly in °C.

Observed ΔTm at 10 µM on MAPKAPK2A (Homo sapiens, UniProt P49137) for Cc1cc(Br)ccc1CNC(=O)Nc1ccc2cc1OCCOCCNc1ccn3ncc-2c3n1 , please.
0.1

Item: O=C(NCc1ccccc1C(F)(F)F)Nc1ccc2cc1OCCOCCNc1ccn3ncc-2c3n1 Test system: MAPKAPK2A (Homo sapiens, UniProt P49137) Read-out: ΔTm at 10 µM Value: ?
0.1

Param readout= ΔTm at 10 µM; system= MAPKAPK2A (Homo sapiens, UniProt P49137); entry= COc1ccc(CNC(=O)Nc2ccc3cc2OCCOCCNc2ccn4ncc-3c4n2)cc1F ; returns value.
0.2

Record lookup: for MAPKAPK2A (Homo sapiens, UniProt P49137), what ΔTm at 10 µM belongs to COc1cccc(CNC(=O)Nc2ccc3cc2OCCOCCNc2ccn4ncc-3c4n2)c1 ?
0.2
